Recorded values, source PubChem BioAssay (EPA / NIEHS).

Read-out: Glutathione S-Transferase (GSTA2), GSTA2 (gene 2939)
assay overview: LTEA_HepaRG_GSTA2: Life Technologies and Expression Analysis (LTEA) Assay for Glutathione S-Transferase (GSTA2) using HepaRG (AID 2283497)
condition info: mRNA level, 48 h; actives raise or lower the signal
The source made the active and inactive calls. The calls were made as follows: active = hit-call score of the fitted dose curve at least 0.9, where 1 is the maximum; inactive = score below 0.9.
Could you please pick one outcome from this set? 1 (yes) (active), 0 (no) (inactive)

Which result was noted for this compound in the test: "CCCCCCCCCCCCCCCCOS(=O)(=O)O"
1 (yes)

What did the test return for "O=C(O)[C@H](O)[C@@H](O)C(=O)O" ?
0 (no)

What did this assay record as the result for "OCC(CO)(CO)CO" ?
0 (no)

---

Read-out: Potassium channel subfamily K member 1 (KCNK1), KCNK1 (gene 3775)
assay overview: LTEA_HepaRG_KCNK1: Life Technologies and Expression Analysis (LTEA) Assay for Potassium channel subfamily K member 1 (KCNK1) using HepaRG (AID 2283511)
condition info: mRNA level, 48 h; actives raise or lower the signal
Activity calls are given as the source filed them. The calls were made as follows: active = hit-call score of the fitted dose curve at least 0.9, where 1 is the maximum; inactive = score below 0.9.
Assign a class; possible classes are true (1) (active), false (0) (inactive)

[
  {
    "molecule": "O=C1CN(N=Cc2ccc([N+](=O)[O-])o2)C(=O)N1",
    "answer label": "false (0)"
  },
  {
    "molecule": "CC(=O)c1ccccc1",
    "answer label": "false (0)"
  },
  {
    "molecule": "CCc1ccc(O)c(C(C)(C)C)c1",
    "answer label": "false (0)"
  },
  {
    "molecule": "CC[C@H](C)C(=O)O[C@H]1C[C@H](O)C=C2C=C[C@H](C)[C@H](CC[C@@H](O)C[C@@H](O)CC(=O)O)[C@H]21",
    "answer label": "false (0)"
  },
  {
    "molecule": "CCCC(CCC)C(=O)O",
    "answer label": "false (0)"
  },
  {
    "molecule": "OCc1ccccc1",
    "answer label": "false (0)"
  },
  {
    "molecule": "NC(N)=O",
    "answer label": "false (0)"
  },
  {
    "molecule": "O=C(O)c1cccc(C(=O)O)c1",
    "answer label": "false (0)"
  }
]

Short answer needed: outcome of this test for CCCCCCCC1CCC(=O)O1 (stereo not given) ?
false (0)

Called result for "COc1cc2c(c(OC)c1OC)-c1ccc(OC)c(=O)cc1[C@@H](NC(C)=O)CC2"
false (0)

What did this assay record as the result for "O=C(O)[C@H](O)[C@@H](O)C(=O)O" ?
false (0)

What call does the record list for "CCCCCCCCN(C)C" ?
false (0)

What is the recorded call for this molecule in the test? "COCc1nnc(-c2ccc[n+]([O-])c2)n1-c1c(Cl)c(Cl)cc2[nH]c(=O)c(=O)[nH]c12"
false (0)

Which result was noted for this molecule in the test: "NC(=O)N1c2ccccc2C=Cc2ccccc21"
false (0)

// return assay outcome for "CCn1nc(C)c2c1C(=O)NCC(c1ccc(O)cc1)=N2"
false (0)

---

assay overview: ATG_Oct_MLP_CIS: Attagene CIS-FACTORIAL HepG2 Assay for human Octamer-Binding Transcription Factor (Oct) (AID 2282993)
condition info: HepG2 Attagene cis-factorial Oct reporter, mRNA; actives raise or lower the signal
Activity calls are given as the source filed them. The calls were made as follows: active = hit-call score of the fitted dose curve at least 0.9, where 1 is the maximum; inactive = score below 0.9.
observed property: AC50

The cases that follow already have their AC50 on record.
[
  {
    "compound": "c1ccc2c(c1)-c1cccc3c1c-2cc1ccccc13",
    "observed property": "AC50",
    "measurement": "inactive"
  },
  {
    "compound": "Cn1cc[nH]c1=S",
    "observed property": "AC50",
    "measurement": "inactive"
  },
  {
    "compound": "COc1cc(C(C)C)c2c(c1)S(=O)(=O)N(COc1cc(=O)n3cccc(OCCN4CCCCC4)c3n1)C2=O",
    "observed property": "AC50",
    "measurement": "4.34 µM (active)"
  },
  {
    "compound": "NC(=O)NN=Cc1ccc([N+](=O)[O-])o1",
    "observed property": "AC50",
    "measurement": "inactive"
  }
]

Report AC50 for "CCCCCCOC(=O)CC(CC(=O)OCCCCCC)(OC(=O)CCC)C(=O)OCCCCCC" please.
inactive

Requested field: AC50. Item: CC(C)CCCCCCOC(=O)C1CCCCC1C(=O)OCCCCCCC(C)C (stereo unspecified)
inactive

Query (compound): "C=CN1CCCC1=O" ; field requested: AC50
inactive

GET /values?readout=AC50&item= "O=C(O)c1ccc2c(c1)nc(C(=O)NC1CCN(C3CC3)CC1)n2Cc1cc(-c2ccc(Cl)s2)on1"
inactive

# input compound: "Nc1ccn([C@@H]2O[C@H](CO)[C@@H](O)[C@@H]2O)c(=O)n1" ; wanted: its AC50
inactive

Query (compound): CCCCC(CC)C(=O)OCCOCCOCCOC(=O)C(CC)CCCC (stereo unspecified) ; field requested: AC50
inactive

Query (compound): "CC(C)c1nnc2ccc(-c3ocnc3-c3cc(F)ccc3F)cn12" ; field requested: AC50
130 µM (active)
